Catalogue of binding signal values
- experimental-target: T1, UNK ZnF1-6 (called full-length) (human, UniProt Q9C0B0 30-357)
- T1 sequence: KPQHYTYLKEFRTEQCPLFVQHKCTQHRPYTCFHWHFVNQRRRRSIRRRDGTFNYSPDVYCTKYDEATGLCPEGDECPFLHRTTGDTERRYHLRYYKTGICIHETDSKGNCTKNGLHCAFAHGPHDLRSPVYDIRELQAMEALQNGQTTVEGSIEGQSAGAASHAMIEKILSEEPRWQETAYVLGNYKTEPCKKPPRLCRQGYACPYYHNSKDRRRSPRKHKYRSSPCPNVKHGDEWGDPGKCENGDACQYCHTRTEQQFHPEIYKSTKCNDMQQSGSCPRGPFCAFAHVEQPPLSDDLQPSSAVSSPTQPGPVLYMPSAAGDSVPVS
- procedure-text: nsRBNS (natural sequence RNA bind-n-seq); RBNS binding buffer (assumed for nsRBNS): 25 mM Tris pH 7.5, 150 mM KCl, 3 mM MgCl2, 0.01% Triton X-100, 500 ug/ml BSA, 20 U/ml SUPERase-In, 4 C; UNK is unkempt and MSI1 is Musashi-1; names of the RNAs are library labels; protein concentration not given here; high values mean tight binding
Whole data set: some 5,800 sequences, median “enrichment r” near 0.68, cut for the highest 2% near 11. The sample as a whole holds a higher share of the highest values than the screen did.
measured-property: binding signal (enrichment R)

binder	measured-property	result-units	quantitative-readout
chr22:49888080:49888186:+|3pUTR|ENSG00000100426|unk|FALSE|unique (ssRNA) RNA: GGGAGUUCUACAGUCCGACGAUCUGGCUUAUUAACAGGGAAGAAGCUUGUUAUAUUCCAGUUGUAAGAAUAGCCUUAGUGUUUAGAUUUUUUUAUGAUAGGGAAGAUGCGGCCAUCACUGGGAUAUUUUCAAAUCCCAAGGACCAACAGAGGAUUGAGCAUCA	binding signal	enrichment R	11.3
chrX:115010634:115010735:-|CDS|ENSG00000123496|msi1|FALSE|unique (ssRNA) RNA: GGGAGUUCUACAGUCCGACGAUCUGGAUCAUCAGAGAACAAGCCUAUCAGAUCCAGUUAUUUCACUUUUCAGCUUCAAAAUAUAGGUGAUGUAAACCAACAAACAACUUCAAAUUCAUUGUUUCUAGUUUAGGCCAUUUACAACAACAGAGGAUUGAGCAUCA	binding signal	enrichment R	0.759
chr4:65323451:65323552:-|3pUTR|ENSG00000145242|msi1|FALSE|unique (ssRNA) RNA: GGGAGUUCUACAGUCCGACGAUCAUCAAGAAAAAGUACAAUACAGGGUGUAUAUUUAUUUUUUGUGUUAUAAAGUUUACUUUUAGUUGCUCUUCUAGAGAUUAUUAGGUAAUAAAUGUGUAUAUACUGUAUAAUUUGCAAUAUCAACAGAGGAUUGAGCAUCA	binding signal	enrichment R	3.94

Data provenance: paper PMC12136788
